- measured_on: HLA-A*31:01
- experiment_summary: IEDB peptide-MHC binding, purified MHC/direct/fluorescence; filed as Kd, often an IC50 or EC50 that approximates it; bounds were set here for any values at or beyond the usual limits of such assays
- experimental_context: source organism: Shigella flexneri
pKd: −log10 of the molar value.
reported_metric: pKd

Tell me its pKd given LSSIGIPAY as the entry.
≤ 4.70

---

- measured_on: HLA-A*32:01
- experiment_summary: IEDB peptide-MHC binding, purified MHC/competitive/radioactivity; filed as Kd, often an IC50 or EC50 that approximates it; bounds were set here for any values at or beyond the usual limits of such assays
- experimental_context: source organism: Mammarenavirus brazilense
reported_metric: Kd

Look up Kd of LINLTTIAY and report it.
8.97 µM

Return Kd for the following sequence: LINERDYSRY
≥ 69.9 µM
